The values you see were collected from patent US20220048996A1.

biological target: human CD137 expressed on DO11.10 cells (DO11.10-hCD137) (human, UniProt Q07011 24-255); assay: cell-based or functional assay
Sequence (Q07011 24-255): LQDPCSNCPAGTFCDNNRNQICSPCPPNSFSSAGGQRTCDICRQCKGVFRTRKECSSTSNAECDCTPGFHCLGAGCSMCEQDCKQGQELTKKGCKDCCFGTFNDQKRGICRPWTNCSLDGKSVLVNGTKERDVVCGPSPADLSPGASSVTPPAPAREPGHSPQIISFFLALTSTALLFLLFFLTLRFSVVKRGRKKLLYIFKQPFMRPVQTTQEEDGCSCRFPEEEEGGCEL
RECORDED_ENDPOINT: Emax of mIL-2 release, DO11.10-hCD137 assay, crosslinked

## Input Emax of mIL-2 release, DO11.10-hCD137 assay, crosslinked lookup needed for FS20-22-49AA/FS30-5-37 (bispecific antibody, human IgG1, kappa, L234A L235A, V domains shown, IgG1 with LALA; also called OX40/CD137 mAb^2) VH: EVQLLESGGGLVQPGGSLRLNCAASGFTFSSYAMSWVRQAPGKGLEWVSAISGSGGSTYYADSVKGRFTISRDNSKNTLYLQMNSLRAEDTAVYYCARSYDKYWGSSIYSGLDYWGQGTLVTVSS VL: EIVLTQSPGTLSLSPGERATLSCRASQSVSSSYLAWYQQKPGQAPRLLIYGASSRATGIPDRFSGSGSGTDFTLTISRLEPEDFAVYYCQQYYSYYPVTFGQGTKVEIKR , thanks.
## Output 18100 pg/mL
